Each recorded value in this set is attributed to the array DNA melting data of Ke et al. (doi:10.1101/2024.01.08.574731).

# Assay Info: melting temperature; fluorescence melt of hairpins on a sequencing array, two-state fit, raised by 9.35 °C to match UV melts
# Test Context: sodium 0.088 M
Measurement Type: Tm (°C)

>>> print(df.to_string())
                           sequence_input  measurement_type  assay_value
 0  GAACTCCGAAAGGAATTC (((.(((....))).)))                Tm         37.5
 1      GATCGTGACAACGATC ((((((....))))))                Tm         63.5
 2  GAAGTGACGAAAGTCTTC (((..(((....))))))                Tm         27.8
 3              GCGTGGAAACGC ((((....))))                Tm         58.8
 4  GTCCCCGAAAGGGTTGAC ((((((....)))..)))                Tm         33.7
 5  GCATTCGGAAACGAGTGC (((.(((....))).)))                Tm           53
 6  GCGATTGGAAACAACCGC (((.(((....))).)))                Tm         48.4
 7  GTTGTCGGAAACGACAGC (.(((((....))))).)                Tm         55.7
 8    GGTACTCGAAAGAGACC (((.(((....))))))                Tm         43.1
 9  GAGTGCGGAAACACACCC (.(((.(....).))).)                Tm         28.1
10        GATCCCTGTGGGATC ((((((...))))))                Tm         66.7
11  GCTAAGCGAAAGCGTGGC ((.(.((....)).).))                Tm         57.1

* * *

Recorded folding enthalpy by entry
# Assay Info: folding enthalpy; higher = less favourable; fluorescence melt of hairpins on a sequencing array, two-state fit
# Test Context: sodium 0.088 M
Measurement Type: folding enthalpy (kcal/mol)

>>> print(df.to_string())
                           sequence_input  measurement_type  assay_value
 0  GAGGACGGAAACATCCTC (((((.(....).)))))  folding enthalpy        -26.7
 1        GATCTCGCAGAGATC ((((((...))))))  folding enthalpy        -30.5
 2  GAGGTTGGAAACAGCCTC ((((.((....)).))))  folding enthalpy        -32.4
 3  GCCACGCGAAAGCGGAGC ((..(((....)))..))  folding enthalpy        -17.1
 4  GGCCCATCGAAAGATGCC (((..(((....))))))  folding enthalpy        -12.4
 5  GCTGTGGGAAACCGTAGC (((..((....))..)))  folding enthalpy        -18.5
 6      GATCCGCAGGCGGATC ((((((....))))))  folding enthalpy        -28.3
 7  CGTTGACGGAAACGTACG (((..(((....))))))  folding enthalpy        -18.8
 8    GGTATTCGAAAGAAACC (((.(((....))))))  folding enthalpy        -16.9
 9    GTTACCGAAAGGTGAAC ((((((....))).)))  folding enthalpy        -14.8
10    GAAGCCCGAAAGGGTTC (((.(((....))))))  folding enthalpy          -16
11        GATCCCAGCGGGATC ((((((...))))))  folding enthalpy        -37.9
